# Test system: Hepatitis C virus NS3 helicase
# ASSAY OVERVIEW: HCV NS3 helicase inhibitors, retest, confirmation, biochemical, Cy5 molecular beacon fluorescence, triplicate (AID 1943)
# EXPERIMENTAL CONDITIONS: NS3 helicase DNA unwinding, at 10.9 µM, stronger effect = higher value
In all, about 1,600 compounds went through this assay and about 500 (31%) were called active. A selection follows.
# inhibition listing for each entry below

# COMPOUND, inhibition
records = [
    ("CNS(=O)(=O)c1cccc(C(=O)NC2CCCc3ccccc32)c1 (stereo unspecified)", "-10.8% (inactive)"),
    ("Fc1ccc(-c2ccc(-c3nn4c(-c5ccco5)nnc4s3)o2)cc1", "12% (inactive)"),
    ("CC(C)c1ccc(C2C(C(=O)c3ccco3)=C(O)C(=O)N2CC2CCCO2)cc1 (stereo unspecified)", "-11.7% (inactive)"),
    ("COc1cc(C2C(C(=O)c3ccco3)=C(O)C(=O)N2c2cc(C)on2)ccc1OCc1ccccc1 (stereo unspecified)", "110% (active)"),
    ("COc1ccc(C)cc1-n1nnnc1SCC(=O)c1cc(C)n(Cc2ccco2)c1C", "6.51% (inactive)"),
    ("COc1ccc(/C=C/C(=O)c2cc(Br)ccc(=O)c2O)cc1", "82.1% (active)"),
    ("O=C1C=CC(=O)N1c1ccc(N2CCCCC2)cc1", "-18.6% (inactive)"),
    ("O=c1[nH]c(/C=C\\c2cccc(C(F)(F)F)c2)nc(O)c1[N+](=O)[O-]", "-7.2% (inactive)"),
    ("Cc1ccc(-c2nn(-c3ccccc3)cc2/C=C2\\SC(=S)N(CCCCCC(=O)O)C2=O)o1", "84.6% (active)"),
    ("Clc1ccccc1CSc1nnc(-c2ccco2)c(-c2ccco2)n1", "72% (active)"),
    ("Cc1ccc(/C=C/C(=O)Nc2ccc([N+](=O)[O-])c(NC(=O)/C=C/c3ccc(C)o3)c2)o1", "62.1% (active)"),
    ("Cc1ccc(S(=O)(=O)N/N=C\\c2cc3c(cc2[N+](=O)[O-])OCO3)cc1", "-12% (inactive)"),
    ("COc1cc(C2CC(=O)N3CN(Cc4ccccc4)CSC3=C2C#N)ccc1OCc1ccccc1 (stereo unspecified)", "25% (inactive)"),
    ("COc1ccc(NC(=O)CSc2ccc(-c3ccco3)nn2)c(OC)c1", "-10.9% (inactive)"),
    ("Cc1[nH]n(C(N)=S)c(=O)c1N=Nc1ccc(Cl)cc1Cl", "10.9% (inactive)"),
    ("CCN(CC)CCOc1ccc2c(c1)C(=NNC(=O)c1ccccn1)c1cc(OCCN(CC)CC)ccc1-2", "37.9% (active)"),
    ("CSc1c(SCc2ccccc2)cnn(Cc2ccccc2)c1=O", "-8.85% (inactive)"),
    ("c1ccc(CSc2nnc(-c3ccco3)c(-c3ccco3)n2)cc1", "67% (active)"),
    ("Cc1occc1C(=O)N/N=C/c1ccc(-c2cccc([N+](=O)[O-])c2)o1", "-10.4% (inactive)"),
    ("COCCNC(=O)Nc1ccc2nc(-c3ccco3)c(-c3ccco3)nc2c1", "43.5% (active)"),
    ("COc1ccccc1C1/C(=C(/O)c2ccc(OC(C)C)cc2)C(=O)C(=O)N1c1cc(C)on1 (stereo unspecified)", "-6.81% (inactive)"),
]
